- TARGET DESC: T1, AS656 VHH (camel-derived)
- T1 construct: One of the 10 different camel-derived nanobodies; not shown: His tag (VHH-His)
- T1 sequence (VHH, as listed by the source): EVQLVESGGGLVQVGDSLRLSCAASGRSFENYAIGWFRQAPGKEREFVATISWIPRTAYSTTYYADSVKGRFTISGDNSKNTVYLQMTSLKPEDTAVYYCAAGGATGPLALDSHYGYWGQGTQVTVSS
- ASSAY INFO: indirect ELISA, VHH coated
MEASURED METRIC: binding result

[[record]]
binder = "R166.E5 (antibody, V domains shown, Rabbit monoclonal; also called clone R166.E5) VH: QSLEESGGRLVTPGTPLTLTCTASGFSLSGYYMIWVRQAPGKGLEYIGIVTSSGSTHYASWANGRFAISKTSSTTVDLKMPSLTTEDTATYFCAREGGWAFDLWGQGTLVTVSS VL: QVLTQTPFSVSTAVGGTVTINCQSSESVANSNWLSWYQQKPGQPPKLLIYWASKLASGVPSRFSGSGSGTQFTLTISGVQCADAATYYCQGGYTSDRRAFGGGTEVVVKG"
measured_metric = "binding result"
recorded_result = "binds"

[[record]]
binder = "R166.H10 (antibody, V domains shown, Rabbit monoclonal; also called clone R166.H10) VH: QSLEESGGRLVTPGTPLTLTCTASGFSLSSYWMSWVRQAPGKGLEYIGIISGSGSTYYATWAKGRFTISKTSSTTVDLKITSPTTEDTATYFCARGNPHYSFGFNIWGPGTLVTVSL VL: DIVMTQTPASVSEPVGGTVTINCQASESIYSWLSWYQQKPGQPPKLLIYSASYLASGVPSQFRGSGSGTEYTLTISDLECADAATYYCQYNYDSGDGITNGFGGGTEVVVKG"
measured_metric = "binding result"
recorded_result = "binds"

[[record]]
binder = "R166.G10 (antibody, V domains shown, Rabbit monoclonal; also called clone R166.G10) VH: QSVEESGGRLVTPGTPLTLTCTVSGFSLSSSAVSWVRQAPGKGLEYIGIIGSGGSTYYASWVNGRFTISKTSTTVDLKMTSLTAADTATYFCARYGGNSGGYDSFNLWGQGTLVTVSS VL: DVVMTQTPASVSEPVGGTVTIKCQASQSIYSHLSWYQQKPGQPPKLLIHGASTLASGASSRFKASGSGTEFTLTISDLECADAATYYCQCTAGTSIYGNAFGGGTEVVVRG"
measured_metric = "binding result"
recorded_result = "binds"

